System: DMS 114 tumor spheroids, viability % test/control
Method Description: Anticancer human tumor DMS 114 cell line growth inhibition;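 note: spheroids exposed to compounds for 7 days before read-out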
Assay Setup: curve of first compound; second compound 0.00949 µM; spheroids with HUVEC and MSC
Quantity Measured: IC50

A selection of reference data follows.
- Molecule: "COc1ccc([C@@H](O)c2cc(-c3ncnc4cc(N5CCOCC5)ccc34)c(F)cc2Cl)nn1 + CC[C@@]1(O)C(=O)OCc2c1cc1n(c2=O)Cc2cc3c(CN(C)C)c(O)ccc3nc2-1"
  IC50: "1.76 µM"
- Molecule: "Cc1sc2c(c1C)C(c1ccc(Cl)cc1)=NC(CC(=O)Nc1ccc(O)cc1)c1nnc(C)n1-2 (stereo not given) + CC[C@@]1(O)C(=O)OCc2c1cc1n(c2=O)Cc2cc3c(CN(C)C)c(O)ccc3nc2-1"
  IC50: "0.0564 µM"
- Molecule: "[2H]c1nc(C)nc([2H])c1-c1cc(NC[C@@H](C)c2cccc3c(C(=O)NC)ccnc23)ncn1 + CC[C@@]1(O)C(=O)OCc2c1cc1n(c2=O)Cc2cc3c(CN(C)C)c(O)ccc3nc2-1"
  IC50: "> 10 µM"

# query: IC50 | item Cc1cc(C)c(CNC(=O)c2cc(-c3ccc(CN4CCOCC4)cc3)cc3c2cnn3C2CCCC2)c(=O)[nH]1 + CC[C@@]1(O)C(=O)OCc2c1cc1n(c2=O)Cc2cc3c(CN(C)C)c(O)ccc3nc2-1 | system: DMS 114 tumor spheroids, viability % test/control
> 10 µM

Request - read-out IC50 | tested on DMS 114 tumor spheroids, viability % test/control | molecule CC1COCCN1c1cc(-c2ccnn2C)c2ccnc(-c3ccn[nH]3)c2n1 (stereo not given) + CC[C@@]1(O)C(=O)OCc2c1cc1n(c2=O)Cc2cc3c(CN(C)C)c(O)ccc3nc2-1
< 0.0316 µM
